Where do the numbers come from? From ChEMBL document CHEMBL1131179.

- Test system: Cavia porcellus
- experiment_notes: Inhibition of resiniferatoxin-induced systemic vascular leakage in guinea pig (SYVAL) upon oral administration at 24 hr r
- Type: functional

[
  {
    "compound": "C[C@@H](O[C@H]1OCCN(Cc2n[nH]c(=O)[nH]2)[C@H]1c1ccc(F)cc1)c1cc(C(F)(F)F)cc(C(F)(F)F)c1 [APREPITANT]",
    "sign": "=",
    "ID90 [mg/kg]": 1.8
  },
  {
    "compound": "O=c1[nH]nc(CN2CCO[C@H](OCc3cc(C(F)(F)F)cc(C(F)(F)F)c3)[C@@H]2c2ccc(F)cc2)[nH]1",
    "sign": "=",
    "ID90 [mg/kg]": 2.3
  },
  {
    "compound": "COc1ccc(-n2nnnc2C(F)(F)F)cc1CN[C@H]1CCCN[C@H]1c1ccccc1",
    "sign": ">",
    "ID90 [mg/kg]": 10
  },
  {
    "compound": "O=c1[nH]nc(CN2CCO[C@H](OCc3cc(C(F)(F)F)cc(C(F)(F)F)c3)[C@@H]2c2ccccc2)[nH]1",
    "sign": "=",
    "ID90 [mg/kg]": 5.4
  },
  {
    "compound": "C[C@H](O[C@H]1OCCN(Cc2n[nH]c(O)n2)[C@H]1c1ccccc1)c1cc(C(F)(F)F)cc(C(F)(F)F)c1",
    "sign": "=",
    "ID90 [mg/kg]": 2.3
  },
  {
    "compound": "COc1ccc(OC(F)(F)F)cc1CN[C@H]1CCCN[C@H]1c1ccccc1 (racemic)",
    "sign": ">",
    "ID90 [mg/kg]": 10
  }
]

----------
- system_name: Substance-P receptor (Homo sapiens)
- Sequence (P25103 whole entry): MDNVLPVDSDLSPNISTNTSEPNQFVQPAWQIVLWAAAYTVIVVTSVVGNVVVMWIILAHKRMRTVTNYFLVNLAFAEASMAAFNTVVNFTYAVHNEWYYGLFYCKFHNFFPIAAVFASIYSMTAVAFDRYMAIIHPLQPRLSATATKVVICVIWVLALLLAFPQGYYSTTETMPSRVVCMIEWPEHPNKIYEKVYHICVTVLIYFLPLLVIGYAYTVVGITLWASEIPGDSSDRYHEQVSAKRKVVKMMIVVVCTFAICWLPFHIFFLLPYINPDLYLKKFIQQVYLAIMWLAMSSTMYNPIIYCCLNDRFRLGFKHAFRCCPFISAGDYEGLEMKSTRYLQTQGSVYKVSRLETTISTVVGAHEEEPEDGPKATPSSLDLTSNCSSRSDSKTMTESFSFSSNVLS
- experiment_notes: Displacement of [125I]-labeled SP from the human Tachykinin receptor 1 expressed in CHO cells
pIC50: −log10 of the molar value.
pIC50: recorded values

[
  {
    "compound": "O=c1[nH]nc(CN2CCO[C@H](OCc3cc(C(F)(F)F)cc(C(F)(F)F)c3)[C@@H]2c2ccc(F)cc2)[nH]1",
    "pIC50": 10.15
  },
  {
    "compound": "C[C@H](O[C@H]1OCCN(Cc2n[nH]c(O)n2)[C@H]1c1ccccc1)c1cc(C(F)(F)F)cc(C(F)(F)F)c1",
    "pIC50": 10.05
  },
  {
    "compound": "C[C@@H](O[C@H]1OCCN(Cc2n[nH]c(=O)[nH]2)[C@H]1c1ccccc1)c1cc(C(F)(F)F)cc(C(F)(F)F)c1",
    "pIC50": 9.06
  },
  {
    "compound": "COc1ccc(-n2nnnc2C(F)(F)F)cc1CN[C@H]1CCCN[C@H]1c1ccccc1 [VOFOPITANT]",
    "pIC50": 10.10
  },
  {
    "compound": "C[C@@H](O[C@H]1OCCN(Cc2n[nH]c(O)n2)[C@H]1c1ccccc1)c1cc(F)cc(C(F)(F)F)c1",
    "pIC50": 10.00
  }
]
